These data points were gathered from ChEMBL document CHEMBL3098072.

Biological target: Inorganic pyrophosphatase (Mycobacterium tuberculosis (strain ATCC 25618 / H37Rv), UniProt P9WI55)
Sequence (P9WI55 whole entry): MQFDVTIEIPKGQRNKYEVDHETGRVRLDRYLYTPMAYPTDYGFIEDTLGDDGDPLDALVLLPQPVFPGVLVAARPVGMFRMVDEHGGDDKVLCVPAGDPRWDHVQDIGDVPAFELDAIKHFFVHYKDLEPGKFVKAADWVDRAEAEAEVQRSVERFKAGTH
Assay: Inhibition of Mycobacterium tuberculosis PPase using inorganic pyrophosphate as substrate preincubated for 2 mins followed by substrate addition measured after 6 mins by malachite green assay
readoutName: IC50 (µM)
Numeric only. Scale: µM

# annotated cases, reported IC50 shown
compound: Cc1ccc(-c2cnnc(N3CCC(c4cccc(Cl)c4)C3)n2)o1 (stereo unspecified)
IC50 (µM): 148
//
compound: O=[N+]([O-])c1cccc(-c2cnnc(N3CCC(c4cccc(Cl)c4)C3)n2)c1 (stereo unspecified)
IC50 (µM): 118
//
compound: Cc1ccc(-c2cnnc(N3CCC(c4cccc(C(F)(F)F)c4)C3)n2)o1 (stereo unspecified)
IC50 (µM): 355
//
compound: FC(F)(F)c1ccccc1-c1ccc(-c2cnnc(N3CCC(c4cccc(Cl)c4)C3)n2)o1 (stereo unspecified)
IC50 (µM): 38.3
//
compound: Cc1ccc(-c2cnnc(N3CCC(c4cccc(OCc5ccccc5)c4)C3)n2)o1 (stereo unspecified)
IC50 (µM): 63.2

Endpoint output: IC50 of Clc1cccc(C2CCN(c3nncc(-c4ccc(Br)cc4)n3)C2)c1 (stereo unspecified) . Value? 33.3
